Assay: amyloid nucleation score (Sup35N fusion, yeast selection) (log enrichment); library NNK1; higher = more nucleation; inactive = no reads after selection;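 also: zero at mode of non-aggregating sequences after 7 days selection at 30°C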

SUBSTANCE	amyloid nucleation score
KAVYVVNGLFVHCVTR	0.267
IVGSSQLSYLGLAFSYGVQV	-0.903
DTSVFWVKIYIFGSISHWAG	0.606
LSPGRYFDSPL	0.589
VSLMCVALYKQISTRI	0.102
GSELGIKRTLSLFICLWIIG	-0.731
FFHFTVSGMPGYSRSY	2.73
YTTVLAYLLTLDVGSSALSG	-0.465
ETGSDEI	-0.55
TGPKRLTDNREFRKF	-1.01
WETWYSVCYAIEIRSYKIRV	-1.3
CFRTFKFLI	2.49

---

Experiment: amyloid nucleation score (Sup35N fusion, yeast selection) (log enrichment); library NNK2; higher = more nucleation; inactive = no reads after selection
Label rule, in plain words: amyloid nucleation score of 0.6 and up is condition met, under 0.6 is condition not met.

SUBSTANCE	CAT
RDSFQCSY	condition not met
ESIRAGLRRSRLWNRGFGES	condition met
YKGQCSILLGRVRWDFSSSS	condition not met
CKCPYFLCIRFWDVDSAMLS	condition met
QFSLLDHITCQPLPTLFLS	condition met
GLFVRQGGLRVCWVLPVHAA	condition met
VINSMY	condition met
AKLLSAVVWDCHWV	condition met
PRKLLSLKPNSTAAGKCATL	condition met
SYDIFWILWLASCMLILYII	condition met
DKPLQWHGCVRKKSTRGRGW	condition met
LMLTCKLSFPGLVNLSCSPI	condition not met
TSHRWAMGSRYEVHIAVGMF	condition met
VFSYRLLSNPLSVPW	condition met
MFSSMSVLCKYILASWASHK	condition not met
RGNHNHGLWNPKNSMVMWEG	condition not met
IMRCGMLVASKFQGEGRNRT	condition met
YLLFTMRNLLILGRQGRSSL	condition not met
GRNPVFWWQVLVATSRLNGQ	condition met

---

Experiment: amyloid nucleation score (Sup35N fusion, yeast selection) (log enrichment); library NNK2; higher = more nucleation; inactive = no reads after selection
Label rule, in plain words: amyloid nucleation score of 1 and up is label 1, under 1 is label 0.

SUBSTANCE	CAT
YGMKTGVNIFVVDVEMVKRS	label 1
LYRLSFSLFWERNRVHSFIR	label 0
ASVIQGVRLLFFRNLARSTS	label 0
VLSSHRFNEAKMN	label 0
TAHGAQWVPDWWEPVTSAYW	label 1
RTLLSSCKIATSLWHMCYPQ	label 0
GYVWDVIGKWGTLRILRVSK	label 0
QCLHSWDWLKSWFVFVGRGE	label 1
QWSVINRTS	label 1
NCFRVFNSFSIFGAFRTMDR	label 1
LLSSFIALSWCWRWFKHSS	label 1
DRFRDVIICFFKCTCNRITQ	label 1
LYIIMMICIQSLFRYRGIKG	label 0
YSYSIRLRCFASRYIFVRVR	label 0
WRAKAFSEKFIERRWDVGMN	label 0
FSFYLTQSKSALIIDVAQRI	label 0
NCVNPDYGLLQQLSRYLVVC	label 0
RGALALLVRDAMFFCSLSGF	label 1
TLGYKFWMGRYRVNSAYGFE	label 0
MCVGNYVLRFLALPPSGCNM	label 0
VFELFAMCSVSKCCGVSSVT	label 1
YHYGNGVAWDMTRKPRHHFV	label 0
QMYATSFNIDCVLFLSLFEM	label 1
DFGRWSTSGSVPCSGATCAV	label 1
LLYHVGSTMGKPIYN	label 0
YCVSPELDWTSIARGHTFNV	label 0
STSVTMHSLSDF	label 0
GDHVVFNWRAHSSSRIVSSY	label 1
CLQFLSRYRVWPSHSFWGEY	label 1
AHLVCRLYETMQLYLYLQWY	label 0
FVWSKSR	label 1
CKRSWVSYMHW	label 0
LSFFSLSIQSCMHGSLKIDS	label 0
SYFGSAHKVAEAHL	label 0
LKVAVLVSGLGLA	label 0

---

Experiment: amyloid nucleation score (Sup35N fusion, yeast selection) (log enrichment); library NNK1; higher = more nucleation; inactive = no reads after selection
Consider the following substances and their measured amyloid nucleation score readings.

SUBSTANCE	amyloid nucleation score
YITAWEWVQRRVV	2.46
TVNHFGLEPCVTKIMGLY	0.213
ITQIADLWHKMT	-0.954
LSMRWYTSPFAFGIS	-0.114
VTVTYIRCTR	1.25
MYGLLEDERTVCQWKMICVV	-0.157
VFFGVVQLICDGVKEIFPNL	4
ATMSRGFKQ	0.834
GLSVFSCQFFFNSTAFFSVN	6.06
PFSDSVARSDGCGVQRV	-0.444
ITDCPCRGISVCVV	-0.288
ENIALIYLECVFKVGSRCFE	0.198
YRESSATGMMSGSDLKRWQV	-2
DATCLESLALSYKG	-0.573
YFPGVSRGQVDEPVYLCCQR	0.068
VSRTCIQYCDDDDRSKSRSS	0.253
EYVACVIEDFSVLNVVRQVD	-0.33
KCTVDQTSNIAACTSVGLCI	5.36
PLCEKSGCSLNFDEERQTLW	1.43
RLCRYLKYRYG	0.839
SFFDVLFKITWYNRVLMC	0.362
DYGVMWI	0.296
GLTKYV	-0.462
SRMLAVKFKLVVTNCCVKLI	-0.598
YFVMGLIFGLKRLLVLAIRR	-0.53
WVAVRDMKGYRSRKKGQSWH	0.199
WTQAPDSAVGDGWGSNGSEA	0.013

---

Assay: amyloid nucleation score (Sup35N fusion, yeast selection) (log enrichment); library NNK3; higher = more nucleation; inactive = no reads after selection

SUBSTANCE	amyloid nucleation score
VRWWWLNF	inactive
SDLMRKKMDGMDRNEGCPIR	inactive
MIYGNWHIWFDVTAVKYEVG	inactive
HPYSNVWMSL	inactive
SLTGLVILMAYRDPPGLAQF	1.46
VFGPLYSSYDIRQ	inactive
YLSINTAEYHFQEQVLVFVY	inactive
GLHLYEFRGRCNTSVDSQTK	inactive
FLDSSVW	inactive
RLFFNPVVVVIWPGVRNVGV	0.189
IQYRGYGYMNSIWYGVERFF	0.626
ITGMVPWSSLESSRPGSLKR	inactive
STGRRPTWATQRLWLWRQQL	-0.091
KTCIVCMLHL	3.32
MINVPSVSYTMSSVIYTSFK	2.39
DFEVSMGQR	-0.015
MSSSIILWNFCNMDRCSLVG	2.23
DADSMRWNSPGLCH	inactive
TRVDGTYKYRLFDLCDAIKF	inactive
VFFRYWV	1.62
VIDFYVEPCLIYGAPPCWLH	0.606
FLISIWGGIGNDNVSVVGVG	inactive
IVYWCLVRNLEKLCCSYFTG	inactive
FTPDVRWLNVLNSHNGVIEV	inactive
ARWNAI	inactive
QSPSSKAK	inactive

---

Consider the following substances and their measured amyloid nucleation score readings.
Assay: amyloid nucleation score (Sup35N fusion, yeast selection) (log enrichment); library NNK2; higher = more nucleation; inactive = no reads after selection
ENDPOINT: amyloid nucleation score

SUBSTANCE	QUANTITATIVE RESULT
RLTDLVSMVSLNPLYFMWSS	-0.08
AHCVRVLHIKSRMVVSWESR	4.19
LPNRVNDRDAEYHVMLLCK	0.095
RNALDTDAAE	0.323
SNYVFTNRGLIFRDFRVSDE	5.56
NSVRNTYWKAPGNLTEGVSG	-0.054
FMMELCLALYLLSYQ	0.061
EYNDRCV	0.974
SFLRARLCCHMMGHSTLKYH	-0.72
NQLKGYTIYWVL	4.45
AFSFDAW	2.02
KSGLTQLLQILSSCLELGIW	0.38
PCISDIFKMDNIYGQQSLFP	-0.266
HFETGGIS	0.447
YQSVRK	-0.022
DYSGYHFMEQVP	-0.363
AKYRLVVLSEFYSLTPRVLD	-0.107
VASRFDSSYMCKMAFI	-0.651
RMLCSHINYLIVGMG	-0.061
SGTKPLCKQ	1.22
YSRGWVHVI	0.384
YILLWVYIHDGLAWSTLLDW	0.757
PIKYIVFSVLSCRRCLGNSM	0.651
GRASMRACWVKMFYWFW	0.981

---

Assay: amyloid nucleation score (Sup35N fusion, yeast selection) (log enrichment); library NNK2; higher = more nucleation; inactive = no reads after selection
ENDPOINT: amyloid nucleation score

PRIMARY SEQUENCE	ENDPOINT	QUANTITATIVE RESULT
KWYKVVNMALALISMWSQAW	amyloid nucleation score	-0.701
HKWCKYNDLFVIHMSGFGRG	amyloid nucleation score	5.44

---

Experiment: amyloid nucleation score (Sup35N fusion, yeast selection) (log enrichment); library NNK3; higher = more nucleation; inactive = no reads after selection

SUBSTANCE	amyloid nucleation score
LGRCFVFMRTVCFDSA	inactive
CYSLFSLPMKALRSISVRCW	1.52
SSGYAFTGKVFYC	inactive
FICFFGYS	inactive
IPERMRWVWEVTRAYNNYAW	inactive
DYALALVFAYCYEDNRMCCP	inactive
LWQNSDLSSSDEYGQRFGKR	-0.706
FMCNNRSILGICIFYDLRRN	2.64
GNTFLWCGRVDSYSTHSYLC	inactive
SLTYGRRWLFDWRSTMKGKA	inactive
VVEGSILACVNRGGKKYYDC	inactive
RFWRCWAMINR	inactive
FDLEMSSGFPTIELWMR	inactive
QCYCGLTPTANLDPLMRIWD	inactive
SKVWRYI	inactive
PGLIVF	inactive
ILPTAKKSKCGSHL	inactive
LLDFVNGFYCFDFTGTFNIY	0.993
ISSYFNMCDLCVDVRHTYRR	inactive
VTHLPTDIGMC	0.894
HVFSITLAVGTYLLTRLYSQ	1.07
RRYPRTLYERVSCVS	inactive
ESVGLISWFRVPIYSN	inactive
ITVELTCGSGYYGTMTENQV	inactive
EGFYTFALGRICGFWSYNFC	1.23
NKNQIDQASSWFPR	inactive
